- procedureText: logP by HPLC on reversed-phase column (EEC Directive 79/831 Annex V.A8)
- Assay type: physicochemical
- conditionParameters: HPLC on reversed-phase column (C 18), 40° C., 0.1% aqueous formic acid and acetonitrile, linear gradient 10% to 90% acetonitrile
metric: logP

compound: CN(Cc1cc(-c2cc(F)c(F)c(F)c2)no1)C(=O)c1c(C(F)F)nn(C)c1F [Example 164]
logP: 3.11
//
compound: Cn1nc(C(F)F)c(C(=O)N(Cc2sccc2Br)C2CC2)c1Cl [Example 136]
logP: 3.29
//
compound: Cn1nc(C(F)F)c(C(=O)N(Cc2ccco2)C2CCCCC2)c1Cl [Example 7]
logP: 3.35
//
compound: Cc1nc(-c2ccccc2)sc1CN(C)C(=O)c1c(C(F)F)nn(C)c1F [Example 149]
logP: 2.77
//
compound: Cc1onc(-c2ccccc2)c1CN(C)C(=O)c1c(C(F)F)nn(C)c1F [Example 130]
logP: 2.44
//
compound: CN(Cc1cscc1Br)C(=O)c1c(C(F)F)nn(C)c1F [Example 133]
logP: 2.52
//
compound: Cn1nc(C(F)F)c(C(=O)N(Cc2sccc2Br)C2CC2)c1F [Example 135]
logP: 3.11
//
compound: Cc1onc(-c2ccccc2)c1CN(C)C(=O)c1c(C(F)F)nn(C)c1Cl [Example 129]
logP: 2.59
//
compound: CCCN(Cc1cccs1)C(=O)c1c(C(F)F)nn(C)c1Cl [Example 29]
logP: 2.90

Where do the numbers come from? From patent US9320276B2.
